Attribution: patent US8067461B2

# System: DU145 Cells
# test-name: Cytotoxicity on DU145 tumor cells, viable cells by Trypan blue exclusion
# Format: cell-based, human
# condition-notes: Homo sapiens, DU-145; DU145 prostate cell line, 96 h continuous treatment, five concentrations (1-100 μM range)
The entries below are paired with their reported IC50.
value-kind: IC50

| structure-smiles | result |
| --- | --- |
| O=C(c1cc2cc(Cl)ccc2oc1=O)c1cc2cc(Cl)ccc2oc1=O | > 100 µM |
| O=C(c1cc2cc(Cl)cc(Br)c2oc1=O)c1cc2cc(Cl)cc(Br)c2oc1=O | 1 to 10 µM |
| O=C(c1cc2cc([N+](=O)[O-])ccc2oc1=O)c1cc2cc([N+](=O)[O-])ccc2oc1=O | 1 to 10 µM |
